Here the recorded cytotoxicity at 70.5 h is given for each entry.
- testSummary: Human HepG2 cell viability assay in 384 well format
- Format: toxicity, cell-based
- Design: dose 125 nL, time 70.5 hour; concentration not given beside the values
- experimentalSetup: HepG2 cells, read-out: Inhibition
measuredEndpoint: cytotoxicity at 70.5 h (%)

1. O=C(Cn1ccnc1)N1CC[C@H](Oc2cccc(F)c2)[C@@H](O)CC1 : 13
2. FC(F)(F)c1ccnc(N2CCCN(Cc3ccccn3)CC2)n1 : 11.3
3. COc1ccccc1CC1CCCN1C(=O)c1cn[nH]c1C (configuration not stated) : -4.05
4. Cc1ccc(S(=O)(=O)c2ncccc2CN2CCN(C)CC2)cc1 : -11.2
5. CN(Cc1cccnc1)C1CC2(CCN(C(=O)c3cnccn3)CC2)C1 : -7.42
6. Cc1cnc(N2C(=O)CSC2c2ccccc2)s1 (configuration not stated) : -9.48
7. Cc1cccc2nc(CNC(=O)N3CCC(N4CC=CC4)C3)cn12 (configuration not stated) : -14.4
8. COc1ccc(OC)c(CN2CCN(Cc3cscn3)CC2)c1 : -5.74
9. COc1ccc(CNc2c(C)nn(C(C)C)c2C)cc1 : 13.9
10. CNc1cc2c(nn1)CCN(C(=O)c1ccccc1-n1cccn1)C2 : 47.8
11. O=C1c2c(O)cc(O)cc2O[C@@H](c2ccc(O)cc2)[C@@H]1O : -7.81
12. Cc1ccsc1CN1CCC(n2cc(C(O)c3ccccc3)nn2)CC1 (configuration not stated) : -8.81

* * *

Form field: cytotoxicity at 70.5 h (one value per entry).
- testSummary: Human HepG2 cell viability assay in 384 well format
- Assay type: toxicity, cell-based
- Set-up: dose 125 nL, time 70.5 hour; concentration not given beside the values
- experimentalSetup: HepG2 cells, read-out: Inhibition
measuredEndpoint: cytotoxicity at 70.5 h

1. COc1cccc(S(=O)(=O)NC(=O)CC2CCCC2)c1 : -3.66%
2. COc1c(C2CCCN2C(=O)c2ccoc2)c(C)nn1C (stereo unspecified) : 13.3%
3. Cc1cccc(CN2CCN3C(=O)NC[C@H]3C2)n1 : -2.26%
4. c1ccc(CN2Cc3nccn3CC(Cn3cccn3)C2)nc1 (stereo unspecified) : -3.5%
5. Cc1cc(C)nc(CN2CCOC(c3ccc(Cl)cc3)C2)n1 (stereo unspecified) : -1.88%
6. O=C(NC1CCC1)c1n[nH]c2c1CNCC2 : -8.89%

* * *

- testSummary: Human HepG2 cell viability assay in 384 well format
- Type: toxicity, cell-based
- Parameters: dose 125 nL, time 70.5 hour; concentration not given beside the values
- experimentalSetup: HepG2 cells, read-out: Inhibition
Reported cytotoxicity at 70.5 h values are given for each entry in this list.
measuredEndpoint: cytotoxicity at 70.5 h (%)

1. CC(C)N1CCCn2nc(C(=O)NCc3ccccc3F)cc2C1 : -5.27
2. O=S(=O)(Nc1cnn(C2CCOCC2)c1)c1ccc(Br)cc1 : -5.21
3. O=C(Cn1cnnn1)N1CCCCC1Cn1cccn1 (stereo unspecified) : 17.9
4. CC(=O)N[C@@H]1Cc2ccccc2[C@H]1Nc1cc(C2CC2)ncn1 : 7.02
5. O=C(Cc1ccc2c(c1)CCC2)NCCNc1ncccn1 : 10.9
6. O=C(c1ccc[nH]1)N1CCCn2cnc(COCC3CC3)c2C1 : -9.86
